System: SK-MEL-5 melanoma
Overview of reported GI50 across a group of molecules:

CC(C)COC(=O)c1ccc2[nH]c(O)c(C=Nc3ccc(S(N)(=O)=O)cc3)c2c1	1.65 µM
COc1ccc2nc(NC(=O)c3cccnc3Nc3cc(OC)c(OC)c(OC)c3)sc2c1	11.3 µM
C=CCCCc1ccc(C(O)CCCCCCCCCCCC)o1 (stereo not given)	18.5 µM
Cc1cc(OCc2nnc3n2N=C(c2ccc(Cl)cc2Cl)CS3)ccc1Cl	25.6 µM

Attention now shifts to the item below.
Exam item: Data request, read-out GI50, for C/C=C(\C)C(=O)N[C@H]1C(O)C[C@]2(C)C3CC[C@@]4(C)C(CC[C@@H]4C(C)N(C)C)C3CCC2C1O (stereo not given in full)
Marked response: 1.65 µM

* * *

Test system: OVCAR-4 ovarian
observation_type: GI50

Consider the reported GI50 for these molecules:
O=C1NCCS(=O)(=O)/C1=C\C=C\c1cccc(C(F)(F)F)c1	4840 nM
CCN(CC)CCSCCCNc1c2ccc(Cl)cc2nc2ccc(OC)cc12	756 nM
O=C(Nc1ccc(I)cc1F)c1cc(Cl)ccc1O	356 nM

# input for lookup
Exam item: Look at this molecule and give its reported GI50. COc1cc2c3c(n(CCCN=[N+]=[N-])c(=O)c2cc1OC)-c1ccc(N(C)C)cc1C3=O
Marked response: > 100000 nM

* * *

Below are GI50 values recorded for MOLT-4 leukemia.

Exam item: Recorded GI50 of CCCNc1nc2ccccc2c2c1S(=O)(=O)c1ccc(Cl)cc1C2=O , please.
Marked response: 1.54 µM

Exam item: Entry O=S(=O)(NCCNc1nccc(-c2c(-c3ccc(F)cc3)nc3sccn23)n1)c1ccccc1 has what GI50?
Marked response: 4.84 µM

Exam item: Entry Oc1ccc(Cl)cc1CNc1nc2ccccc2[nH]1 : reported GI50 = ?
Marked response: 10.7 µM

Exam item: Fill blank: measured GI50 of the compound COC(=O)[C@@H](C)C[C@H](Cc1ccccc1)NC(=O)c1csc([C@@H](C[C@H](C(C)C)N(C)C(=O)[C@H](C)NC(=O)[C@H]2CCCCN2C)OC(C)=O)n1 is ____.
Marked response: 2.22 µM

Exam item: Name the reported GI50 value associated with the compound COc1ccc2nc(NC(=O)c3cccnc3Nc3cc(OC)c(OC)c(OC)c3)sc2c1
Marked response: 24.2 µM

Exam item: Fill in: GI50 of Cc1cccc2c(N)c3ccccc3nc12 is ___
Marked response: 0.556 µM

Exam item: Item under review: COc1ccc(Nc2cc(C)nc(N3CCN(c4ccnc5cc(Cl)ccc45)CC3)n2)cc1 . Reported GI50?
Marked response: 2.9 µM

Exam item: Can you look up the measured GI50 of Cn1c(=O)c(Oc2ccc(F)cc2F)cc2cnc(NCCS(C)(=O)=O)nc21 for me?
Marked response: > 25 µM

Exam item: Name the reported GI50 value associated with the compound C/C=C(\C)C(=O)N[C@H]1C(O)C[C@]2(C)C3CC[C@@]4(C)C(CC[C@@H]4C(C)N(C)C)C3CCC2C1O (stereo partly specified)
Marked response: 4.06 µM

Exam item: Can you share its GI50? I mean this compound: COc1cc(/C=C/C(=O)c2cccnc2Nc2ccc(F)cc2)cc(OC)c1OC
Marked response: 2.75 µM

Exam item: // query GI50 value for entry Cc1ccc(-c2nc(N3CCCNCC3)c3oc(-c4ccc(C)cc4)nc3n2)cc1
Marked response: 1.77 µM
